FYI, the data here is from ChEMBL document CHEMBL1201862.

- Test system: EKVX
- EXPERIMENT_DESCRIPTION: NCI tumour cell line growth inhibition, 48 h
The source made the active and inactive calls. No stated cut-off is given here; in the data, active = GI50 up to about 1.1 µM and inactive = higher.
MEASURED_PROPERTY: GI50

COc1ccc(NC(=O)CC(=O)N2N=C(N(CCC#N)c3cccc(C)c3)CC2c2ccccc2)cc1 (configuration not stated)    > 100 µM (inactive)

For reference, reported GI50 for CCOC1C(Br)Cn2c(=O)c3cc4ccccc4cc3c(=O)n2C1C (configuration not stated) stands at 47.6 µM (inactive)

For reference, reported GI50 for CC(NNC(=O)c1ccncc1)c1cccc(C(F)(F)F)c1 (configuration not stated) stands at > 100 µM (inactive)

For reference, reported GI50 for `COc1cc(Br)c(C2OCCCO2)cc1OCc1ccccc1` stands at > 100 µM (inactive)

For reference, reported GI50 for O=C1NC(O)n2c(=O)[nH]c(=O)n21 (configuration not stated) stands at > 100 µM (inactive)

For reference, reported GI50 for `O=C1CCSC2=C1SCc1sccc12` stands at 93.5 µM (inactive)

---

- Test system: IGROV-1
- EXPERIMENT_DESCRIPTION: NCI tumour cell line growth inhibition, 48 h
Activity calls are given as the source filed them. No stated cut-off is given here; in the data, active = GI50 up to about 1.1 µM and inactive = higher.
Outcomes you can answer with include only these: active, inactive

CC1CCC2(C)C(CC=C(C=O)C2(O)C=O)C12CO2 (stereo unspecified)    inactive

Returns: the outcome recorded for COc1cc(C(c2ccc3c(c2)OCO3)N2C(=O)CCC2C(=O)O)cc(OC)c1OC (stereo unspecified) in this assay.
inactive

Returns: the outcome recorded for `O=C(NCCCCCCCCCCCCNC(=O)c1cnc2ccccc2n1)c1cnc2ccccc2n1` in this assay.
inactive

Returns: the outcome recorded for COc1oc(C2C/C(=C/C(C)=C/C(C)=C/C(C)=C/c3ccc([N+](=O)[O-])cc3)CO2)c(C)c(=O)c1C (stereo unspecified) in this assay.
inactive

Returns: the outcome recorded for CC1C(c2ccccc2O)c2cc3c(cc2OC1N1CCOCC1)OCO3 (stereo unspecified) in this assay.
inactive

Returns: the outcome recorded for `CCOC(=O)CC(=O)C(=O)NN=C1NCCCN1` in this assay.
inactive

Returns: the outcome recorded for Nc1ccc2c(c1)N(C(=O)c1cc3cc(NC(=O)c4cc5ccccc5o4)ccc3[nH]1)CC2CCl (stereo unspecified) in this assay.
active

Returns: the outcome recorded for `C=CN1C(=O)OC[C@@H]1c1ccccc1` in this assay.
inactive

Returns: the outcome recorded for NC(=S)N/N=C1/C(=O)N(c2ccccc2)C(=O)C1C(=O)Nc1ccccc1 (stereo unspecified) in this assay.
inactive

Returns: the outcome recorded for CC1CCC2C(C)(C)CC3(C)CCC1C23O (stereo unspecified) in this assay.
inactive

Returns: the outcome recorded for `O=c1cc(-c2ccccc2)[nH]c2c(F)ccc(F)c12` in this assay.
inactive

---

Listed next: entries and their corresponding GI50.
- Tested on: HOP-62
- EXPERIMENT_DESCRIPTION: NCI tumour cell line growth inhibition, 48 h
Activity calls are given as the source filed them. Cut-off read from the data, not from the text of the source: active = GI50 up to about 1.1 µM and inactive = higher.

For reference, reported GI50 for C=CCOc1ccc(C2(O)c3ccccc3C3=NCCCN32)cc1 (stereo not given) stands at 60.5 µM (inactive)

For reference, reported GI50 for CC1Cn2c(nc3ccccc32)NC1=O (stereo not given) stands at > 100 µM (inactive)

For reference, reported GI50 for `CCc1ccccc1-n1c2nc(=O)n(C)c(=O)c-2nc2ccccc21` stands at 29.6 µM (inactive)

For reference, reported GI50 for CC(=O)OC1CCC2(C)C(=CC(C3C=C4CC(OC(C)=O)CCC4(C)C4=C3C3CC5OC6(CCC(C)CO6)C(C)C5C3(C)CC4)C3=C2CCC2(C)C3CC3OC4(CCC(C)CO4)C(C)C32)C1 (stereo not given) stands at 15.5 µM (inactive)

For reference, reported GI50 for `CC(=O)N(N=O)c1ccc(N(N=O)C(C)=O)cc1` stands at > 100 µM (inactive)

For reference, reported GI50 for `Cc1ccc(N/N=C2\C3=C(CCC(C)(C)O3)C(=O)c3ccccc32)cc1` stands at 20.6 µM (inactive)

For reference, reported GI50 for `CC(=O)c1ccc(NC(=O)/C(CC(=O)/C=C/c2ccccc2)=N/NC(N)=S)cc1` stands at > 100 µM (inactive)
